Biological target: T1, dog serum albumin (dog, UniProt P49822 25-608)
T1 construct: Bought protein, immobilized on a CM5 chip by amine coupling; also called Dog SA
Test: SPR (Biacore 8K), albumin immobilized on CM5 chip, 25 C, 1:1 kinetic fit
Description: The immobilization of the serum albumin to a Series S Sensor Chip CM5 surface is performed according to the manufacturer's instructions (Amine Coupling Kit BR-1000-50). Briefly, carboxyl groups on the sensor chip surfaces (flow cell 1 and 2) are activated by injecting 70 μL of a mixture containing 75 mg/mL EDC and 11.5 mg/mL NHS at 10 μL/min. […]
Attribute Measured: koff (s⁻¹)
# number only, unit s⁻¹ dropped from output

Tell me its koff given RLN Analog 2 (other, Single-chain fusion: VHH - (PGPA)8 L1 - RLN2 A chain - L2 - RLN2 B chain (desB1)) EVQLLESGGGLVQPGGSLRLSCAASGRYIDETAVAWFRQAPGKEREFVAGIGGGVDITYYADSVKGRFTISRDNSKNTLYLQMNSLRPEDTAVYYCAARPGRPLITSKVADLYPYWGQGTLVTVSSPGPAPGPAPGPAPGPAPGPAPGPAPGPAPGPAQLYSALANKCCHVGCTKRSLARFCGGGSGGSGGGSWMEEVIKLCGRELVRAQIAICGMSTWS as the entry.
0.0015

Tell me its koff given RLN Analog 11 (other, Single-chain fusion: VHH - (G4Q)5 L1 - RLN2 B chain (desB1) - L2 of thirteen residues - RLN2 A chain (desA1-4)) EVQLLESGGGLVQPGGSLRLSCAASGRYIDETAVAWFRQAPGKEREFVAGIGGGVDITYYADSVKGRFTISRDNSKNTLYLQMNSLRPEDTAVYYCAARPGRPLITSKVADLYPYWGQGTLVTVSSGGGGQGGGGQGGGGQGGGGQGGGGQSWMEEVIKLCGRELVRAQIAICGMSTWSGGGSGGSGGSGGGALANKCCHVGCTKRSLARFC as the entry.
0.0017

Tell me its koff given RLN Analog 9 (other, Single-chain fusion: RLN2 B chain (desB1) - L2 - RLN2 A chain - (G4Q)5 L1 - VHH (C-terminal)) SWMEEVIKLCGRELVRAQIAICGMSTWSGGGSGGSGGGQLYSALANKCCHVGCTKRSLARFCGGGGQGGGGQGGGGQGGGGQGGGGQEVQLLESGGGLVQPGGSLRLSCAASGRYIDETAVAWFRQAPGKGREFVAGIGGGVDITYYADSVKGRFTISRDNSKNTLYLQMNSLRPEDTAVYYCAARPGRPLITSKVADLYPYWGQGTLVTVSSPP as the entry.
0.0036
